The origin of these recorded values is the supplement of paper PMC8967900.

- Tested on: CCRF-CEM
- ASSAY_COMMENT: selective drug sensitivity score (sDSS, relative to normal bone marrow) (sDSS (score)); higher = more potent and effective on the cell line relative to normal bone marrow cells;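 also: ALL cell lines in 384-well plates, five doses spanning 10,000-fold, each plate scaled between vehicle and 100 µmol/L benzalkonium chloride controls, sDSS an adapted area-under-curve metric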
- ASSAY_SETUP: 72 h
Class (required): determined from selective drug sensitivity score; valid ranges are lower bin: < -1; middle bin: ≥ -1 and < 2; upper bin: ≥ 2

Task item: Bin? Cc1ccc(C(=O)Nc2ccc(Oc3cc4cnn(C)c4cc3-c3cn[nH]c3)c(F)c2)c(=O)n1-c1ccc(F)cc1 [Merestinib] (top concentration 1000 nM)
Reply: middle bin

Task item: Each molecule maps to one class by selective drug sensitivity score. Which class for CC1(C)CC[C@]2(NC(=O)C(C)(F)F)CC[C@]3(C)[C@H](C(=O)C=C4[C@@]5(C)C=C(C#N)C(=O)C(C)(C)[C@@H]5CC[C@]43C)[C@@H]2C1 [Omaveloxolone] (top concentration 10000 nM) ?
Reply: middle bin

Task item: Note: place this molecule into its band. Item: CCN(CC)CCCC(C)Nc1ccnc2cc(Cl)ccc12 (configuration not stated) [Chloroquine] (top concentration 100000 nM)
Reply: lower bin

Task item: Exam item: assign CN(C)CCOc1ccc(/C(=C(/CCCl)c2ccccc2)c2ccccc2)cc1 [Toremifene] (top concentration 10000 nM) to the correct category.
Reply: middle bin

Task item: Lab log: CCc1nc(C(N)=O)c(Nc2ccc(N3CCC(N4CCN(C)CC4)CC3)c(OC)c2)nc1NC1CCOCC1 [Gilteritinib] (top concentration 1000 nM) — assign selective drug sensitivity score category
Reply: lower bin

Task item: Please classify: CC[C@]12C=CCN3CC[C@@]4(c5cc([C@@]6(C(=O)OC)C[C@@H]7C[C@@H](C(C)(F)F)CN(Cc8c6[nH]c6ccccc86)C7)c(OC)cc5N(C)[C@H]4[C@@](O)(C(=O)OC)[C@@H]1OC(C)=O)[C@@H]32 [Vinflunine] (top concentration 1000 nM)
Reply: upper bin

Task item: Please let me know in which category the item Nc1nc2cc(-c3ccc4ncc(C(=O)N5CCOCC5)n4c3)ccc2o1 [Serabelisib] (top concentration 10000 nM) belongs.
Reply: middle bin

Task item: Exercise: read the entry N#CC(c1ccnc(OCc2ccc(CN3CCOCC3)cc2)n1)c1nc2ccccc2s1 (configuration not stated) [Bentamapimod] (top concentration 10000 nM) and state which class it falls under.
Reply: upper bin

Task item: Please indicate the class for CCCCc1nc2cc(/C=C/C(=O)NO)ccc2n1CCN(CC)CC [Pracinostat] (top concentration 10000 nM) based on its selective drug sensitivity score.
Reply: upper bin

Task item: Given CC(C)(C)c1cnc(CSc2cnc(NC(=O)C3CCNCC3)s2)o1 [SNS-032] (top concentration 10000 nM) , name the class its selective drug sensitivity score places it in.
Reply: lower bin

* * *

Please provide measured selective drug sensitivity score for the entries that follow.
- System: PF-382
- ASSAY_COMMENT: selective drug sensitivity score (sDSS, relative to normal bone marrow) (sDSS (score)); higher = more potent and effective on the cell line relative to normal bone marrow cells
- ASSAY_SETUP: 72 h
When you answer, write just the number.

Task item: Return reported selective drug sensitivity score; argument: CNC(=O)CN1CCC(Oc2cc3c(Nc4cccc(Cl)c4F)ncnc3cc2OC)CC1 [Sapitinib] (top concentration 1000 nM)
Reply: 0

Task item: Entry Cn1nnc2c(C(N)=O)ncn2c1=O [Temozolomide] (top concentration 100000 nM) has what selective drug sensitivity score?
Reply: 3.16

Task item: Which measured selective drug sensitivity score value corresponds to Cc1ccc(C(=O)Nc2cccc(C(F)(F)F)c2)cc1Nc1nc(-c2cccnc2)nc2c1cnn2C [NVP-BHG712] (top concentration 10000 nM) ?
Reply: 3.38

Task item: Dear colleague, I am looking for the recorded selective drug sensitivity score of the following compound: CCn1cc(-c2ccnc3[nH]c(-c4cccc(CN(C)C)c4)cc23)c(-c2ccc(NC(=O)N(C)C)cc2)n1 (top concentration 1000 nM)
Reply: 9.26

* * *

Give selective drug sensitivity score for every item shown.
- Tested on: PF-382
- ASSAY_COMMENT: selective drug sensitivity score (sDSS, relative to normal bone marrow) (sDSS (score)); higher = more potent and effective on the cell line relative to normal bone marrow cells
- ASSAY_SETUP: 72 h
// response body must contain only the number

Task item: Find the measured selective drug sensitivity score: item O=C(CCCCCCC(=O)Nc1ccc([C@H]2O[C@@H](CSc3nc(-c4ccccc4)c(-c4ccccc4)o3)C[C@@H](c3ccc(CO)cc3)O2)cc1)NO [Tubacin] (top concentration 10000 nM) , target or system PF-382.
Reply: 8.14

Task item: Give recorded selective drug sensitivity score with PF-382 for the following molecule: COCCNCc1ccc(-c2cc3nccc(Oc4ccc(NC(=S)NC(=O)Cc5ccc(F)cc5)cc4F)c3s2)nc1 [Glesatinib] (top concentration 2500 nM)
Reply: -0.56

Task item: State its selective drug sensitivity score on PF-382: CNC(=O)c1ccc2cc([C@@]3(O)CCn4cncc43)ccc2c1 [Orteronel] (top concentration 10000 nM)
Reply: 0

* * *

- Tested on: HPB-ALL
- ASSAY_COMMENT: selective drug sensitivity score (sDSS, relative to normal bone marrow) (sDSS (score)); higher = more potent and effective on the cell line relative to normal bone marrow cells
- ASSAY_SETUP: 72 h
Classification field: enter 1 (yes) for selective drug sensitivity score values not below -0.02, 0 (no) for values below it.

Task item: Is reported selective drug sensitivity score greater than or equal to -0.02 here: Cc1c(F)cc(C(=O)NC2CC2)cc1-c1ccc(C(=O)NCC(C)(C)C)cn1 [Losmapimod] (top concentration 10000 nM)
Reply: 1 (yes)

Task item: Say whether COc1cc2/c(=N/c3ccc(Br)cc3F)nc[nH]c2cc1OCC1CCN(C)CC1 [Vandetanib] (top concentration 1000 nM) shows selective drug sensitivity score of -0.02 or more.
Reply: 0 (no)

Task item: # check: selective drug sensitivity score of COc1cc2c(Oc3ccc4[nH]c(C)cc4c3F)ncnc2cc1OCCCN1CCCC1 [Cediranib] (top concentration 1000 nM) is greater than or equal to -0.02
Reply: 1 (yes)

Task item: Test whether the molecule CCN(CC)CCCC(C)Nc1ccnc2cc(Cl)ccc12 (stereo not drawn) [Chloroquine] (top concentration 100000 nM) records selective drug sensitivity score of -0.02 or higher.
Reply: 0 (no)

Task item: Kindly determine if selective drug sensitivity score recorded for Cc1cc2c(C(C)C)c(O)c(O)c(C=O)c2c(O)c1-c1c(C)cc2c(C(C)C)c(O)c(O)c(C=O)c2c1O [AT-101] (top concentration 100000 nM) is above or exactly -0.02.
Reply: 1 (yes)

Task item: Answer whether selective drug sensitivity score of COc1cc([C@@H]2c3cc4c(cc3[C@@H](O[C@@H]3O[C@@H]5CO[C@@H](c6cccs6)O[C@H]5[C@H](O)[C@H]3O)[C@H]3COC(=O)[C@H]23)OCO4)cc(OC)c1O [Teniposide] (top concentration 10000 nM) is greater than or equal to -0.02.
Reply: 1 (yes)

Task item: Does Oc1ncnc2[nH]ncc12 [Allopurinol] (top concentration 10000 nM) have a reported selective drug sensitivity score of at least -0.02?
Reply: 1 (yes)

Task item: Form field: selective drug sensitivity score at least -0.02? Entry: CNc1nc(-c2ccc3c(N)n[nH]c3c2)cc(N2C[C@@H](C(=O)NC3CCCCC3)CC[C@H]2C)n1 (top concentration 10000 nM)
Reply: 1 (yes)

Task item: For this molecule, is measured selective drug sensitivity score -0.02 or higher? Cc1ccc(C(=O)N(CCCN)[C@@H](c2oc3cc(Cl)ccc3c(=O)c2Cc2ccccc2)C(C)C)cc1 (top concentration 100 nM)
Reply: 1 (yes)

Task item: Form field: selective drug sensitivity score at least -0.02? Entry: CC[C@H](Nc1ncnc2[nH]cnc12)c1nc2cccc(F)c2c(=O)n1-c1ccccc1 [Idelalisib] (top concentration 10000 nM)
Reply: 0 (no)

Task item: Please indicate if the recorded selective drug sensitivity score for CC(C)C(=O)Nc1ccc([N+](=O)[O-])c(C(F)(F)F)c1 [Flutamide] (top concentration 10000 nM) meets or exceeds -0.02.
Reply: 0 (no)

Task item: selective drug sensitivity score >= -0.02 for O=C1c2c(O)ccc(O)c2C(=O)c2c(NCCNCCO)ccc(NCCNCCO)c21 [Mitoxantrone] (top concentration 1000 nM) ?
Reply: 0 (no)

* * *

- System: KASUMI-2
- ASSAY_COMMENT: selective drug sensitivity score (sDSS, relative to normal bone marrow) (sDSS (score)); higher = more potent and effective on the cell line relative to normal bone marrow cells
- ASSAY_SETUP: 72 h
I'd be grateful if you could share measured selective drug sensitivity score for these entries.
Lab note: record the figure alone, no unit after it.

Task item: Can you look up selective drug sensitivity score on KASUMI-2 for C=C1C[C@@H]2CC[C@@]34C[C@H]5O[C@H]6[C@@H](O3)[C@H]3O[C@H](CC[C@@H]3O[C@H]6[C@H]5O4)CC(=O)C[C@@H]3[C@@H](OC)[C@@H](C[C@H](O)CN)O[C@H]3C[C@H]3O[C@@H](CC[C@@H]1O2)C[C@@H](C)C3=C [Eribulin] (top concentration 1000 nM) ?
Reply: 15.5

Task item: Which selective drug sensitivity score is reported with KASUMI-2 for this entry: CC(C)(C)C[C@@H]1N[C@@H](C(=O)N[C@H]2CC[C@H](O)CC2)[C@H](c2cccc(Cl)c2F)[C@]12C(=O)Nc1cc(Cl)ccc12 (top concentration 10000 nM) ?
Reply: 11.7

Task item: Kindly state the measured selective drug sensitivity score obtained for CC(C)(O)CC(=O)NCCn1ccc2ncnc(Nc3ccc(Oc4cccc(C(F)(F)F)c4)c(Cl)c3)c21 [TAK-285] (top concentration 2500 nM) with KASUMI-2.
Reply: 0
